- Test description: viability loss with induced miR-34 in A549 – imaging, A549 dox-inducible miR-34, nuclei and caspase counts, primary screen (AID 1347080); note: test concentration not given here
- Applied conditions: A549 miR-34 inducible, Hoechst nuclei count, 48 h; hits give low values; cell number ratio, induced over uninduced
Mark Fulfilled only for fold change values smaller than 0.9; exact matches and larger values are Not fulfilled.

Solved cases below.
Compound	Category label
Cc1nn(C)cc1-c1ccnc(N2CCCN(c3ccc(F)cc3)CC2)n1	Fulfilled
COc1cc(C=CC(=O)O)ccc1O	Not fulfilled
NNC(=O)c1ccc(-c2ccccc2Cl)o1	Fulfilled
Cc1cc(C(=O)Nc2ccc3c(c2)CC(=O)N3)c(C)o1	Not fulfilled
N#C/C(=C\c1ccc(O)c(O)c1)C(=O)NCCCNC(=O)/C(C#N)=C/c1ccc(O)c(O)c1	Not fulfilled

Shift focus to the following entry.
Q: In plain terms, does CCC(NC(=O)C(C)NC)C(=O)N1CC(O)CC1Cc1c(-c2[nH]c3cc(F)ccc3c2CC2CC(O)CN2C(=O)C(CC)NC(=O)C(C)NC)[nH]c2cc(F)ccc12 (stereo not given) come in under 0.9 for fold change?
A: Not fulfilled
